Collected T/C values appear next to each entry.
system: P388 leukemia ip, CD2F1 mice, survival T/C; test: NCI In Vivo Anticancer Drug Screen. Data for tumor model P388 Leukemia (intraperitoneal) in CD2F1 (CDF1) mice; conditions: endpoint: median survival time; dose: 200.0 mg/kg/injection; schedule: Q01DX001 (ip); vehicle: saline with Tween-80; higher = longer survival
Toxic doses and inconclusive results are not listed.
Measured metric: T/C

INSERT INTO measurements (molecule, system, reported_value) VALUES
  ('C=CC[S+]1CCCCC1C=C (stereo not drawn)', 'P388 leukemia ip, CD2F1 mice, survival T/C', '95 % of control'),
  ('Cc1cc([N+](=O)[O-])cc(Br)c1N', 'P388 leukemia ip, CD2F1 mice, survival T/C', '95 % of control'),
  ('COC(=O)C1=NNc2ccccc2C(OC(C)=O)C1C (stereo not drawn)', 'P388 leukemia ip, CD2F1 mice, survival T/C', '96 % of control');

###

Listed next: entries and their corresponding T/C.
tested on: P388 leukemia ip, CD2F1 mice, survival T/C; assay: NCI In Vivo Anticancer Drug Screen. Data for tumor model P388 Leukemia (intraperitoneal) in CD2F1 (CDF1) mice; details: endpoint: median survival time; dose: 200.0 mg/kg/injection; schedule: Q01DX005 (ip); vehicle: Klucel (hydroxypropylcellulose) (HPC); higher = longer survival
Inconclusive results and toxic doses are left out. Square brackets hold non-standard residues; d marks the D form. Peptide text beside a SMILES is read from it. * marks the point of attachment. ξ: configuration not given here. Cbz = O=C(OCc1ccccc1)*; OBn = c1ccc(CO*)cc1; ξS = NC(CO)C(=O)O
Measured metric: T/C

INSERT INTO assay_data (compound, reported_value) VALUES
  ('CC1(C)N(/N=C/c2ccccc2)C(c2ccccc2)C(c2ccccc2)N1/N=C/c1ccccc1 (stereo not given)', '87 % of control'),
  ('O=C(CNC(=O)C(CO)NC(=O)OCc1ccccc1)NCC(=O)OCc1ccccc1 (stereo not drawn) (Cbz-[ξS]-Gly-Gly-OBn)', '97 % of control'),
  ('O=C(/C=N/O)Nc1ccccc1I', '115 % of control'),
  ('COc1cc(OC)c(/C=N/Nc2cc(C)c3ccc(OC)cc3n2)c(OC)c1', '114 % of control'),
  ('CC1CN(CC#CCN2C(=O)CCC2=O)CC(C)O1 (stereo not given)', '107 % of control');
